Numbers sourced from patent US20200206108A1.

procedure-text: Zeta potential of zinc oxide in the presence of amino acids
Type: physicochemical
conditions: aqueous zinc oxide suspension 12 mM, alone (pH 8) or with the named amino acid (1.7 mmol) added
Task for the reader: assign each of the following compounds its reported zeta potential (charge of zinc oxide).

Dear colleague, could you please provide zeta potential (charge of zinc oxide) for the compounds listed below?
1. [O]=[Zn] [Zinc oxide, zinc oxide]
2. N[C@@H](CCC(=O)O)C(=O)O
3. N=C(N)NCCC[C@H](N)C(=O)O

A)
1. +16 mV
2. −28 mV
3. +36 mV
